// reported TGI per item
# Test system: SN12C renal
# experiment.description: NCI tumour cell line growth inhibition, 48 h

compound	TGI
CS(=O)(=O)OCCn1c2c(c3c(O)cccc31)C(=O)c1ccccc1-2	> 100 µM
CC(C)=C[C@@H]1C[C@H](C)[C@H]2CC[C@H](C)c3c(O)c(OC4OCC(O)C(O)C4O)c(C)c1c32 (stereo partly specified)	21.8 µM
CC(=O)Nc1ccc(S(=O)(=O)/N=C2\C=CC(=O)c3ccccc32)cc1	11.9 µM
COC(=O)CNC(=O)CCSc1nnc(COc2ccc(Cl)cc2)n1-c1ccccc1	45.9 µM
O=[N+]([O-])c1ccc2c3c1[C@H]1O[C@H]1c1cccc(c1-3)[C@@H]1O[C@H]21	4.69 µM
O=c1[nH]nc(NCCc2ccccc2)c2nnn(Cc3ccccc3)c12	> 100 µM

Could you share which TGI value was measured for NC1CC(=O)c2ccccc21 (stereo unspecified) ? > 100 µM

Could you share which TGI value was measured for "CNC[C@@H](NC(=O)c1ccc(-c2nc([C@H]3CC[C@H](O)[C@@H](F)C3)cnc2N)cc1F)c1cc(F)cc(Br)c1" ? 32.9 µM

Could you share which TGI value was measured for "CCCCC(=O)Nc1ccc2cc(C(=O)OC)c(Cl)nc2n1" ? > 100 µM

Could you share which TGI value was measured for "O=C(O)CCC(=O)N1C/C(=C\c2ccccc2)C(=O)/C(=C/c2ccccc2)C1" ? 3.52 µM

Could you share which TGI value was measured for "COc1ccc(N2CCOCC2)cc1" ? > 100 µM
